// provenance: PubChem BioAssay

# Tested on: Human papillomavirus type 1a protein E7 (residues 44-93)
# test summary: HPV1a E7 fragment binders on microarrays, primary screen, biochemical, small-molecule microarray, residues 44-93, 635 nm fluorescence (AID 1108);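 further: E7 fragment applied at 1 µg/mL in TBST for 1 h at 4 C; score combines spot fluorescence with its signal to noise ratio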
# protocol conditions: small-molecule microarray binding, fluorescence 635 nm; higher = more signal
Values of composite z-score greater than or equal to 0.7 map to true; values below map to false.

| molecule | cat |
| --- | --- |
| CC(C)CNC(=O)[C@@H]1c2ccccc2C(=O)N(Cc2ccccc2Cl)[C@H]1c1ccc(CO)cc1 | true |
| CC(C)C[C@@H]1NC(=O)[C@H]2C[C@@H](C(=O)NCCCCCCNC(=O)CS)[C@@H](c3ccc(O)cc3)N2C1=O | true |
| CC(=O)c1ccc(C(O)C2C=CC3C(=O)N(C)C(=O)C3N2NC(=O)OC(C)(C)C)cc1 (configuration not stated) | true |
| C=CCC(OC(C)=O)[C@@H]1[C@@H](N(Cc2ccc(-c3cccc(C(F)(F)F)c3)o2)C(=O)Cc2ccc(F)cc2)c2cc(OCCCO)ccc2N1C(=O)c1ccc2ccccc2n1 (some centres not stated) | false |
| COCCOC(=O)N1C(=O)[C@@]2(c3cc(C#CCCO)ccc31)[C@H](C(=O)N1CCN(c3ncccn3)CC1)[C@H]1C(=O)O[C@H](c3ccccc3)[C@H](c3ccccc3)N1[C@@H]2c1ccc(O)cc1 | false |
| [N-]=[N+]=NCc1ccccc1C[C@]1(C(=O)NCc2ccccc2)N=C(c2ccc(OCCCO)cc2)O[C@H]1c1ccccc1CN=[N+]=[N-] | true |

###

# test summary: COS7 lysate on small-molecule microarray, probe aHis, 635 nm (AID 1123);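 further: z-score combines 667nm fluorescence intensity with signal-to-noise per printed compound spot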
# protocol conditions: COS7 cell lysate, fluorescence, higher = more signal
quantity: composite z-score

| chemical smiles | observed measurement |
| --- | --- |
| COc1ccccc1CN1C(=O)c2ccccc2[C@@H](C(=O)NCCCN(C)C)[C@@H]1c1ccc(CO)cc1 | -0.171 |
| COCCOC(=O)N1C(=O)[C@@]2(c3cc(C#CC4(O)CCCCCC4)ccc31)[C@H](c1ccccc1OCCO)N1[C@H](c3ccccc3)[C@H](c3ccccc3)OC(=O)[C@H]1[C@@H]2C(=O)N1CCCCCCC1 | 2.16 |
| CN1C(=O)[C@]2(CCC(=O)OC(C)(C)C)N=C(c3ccc(OCCCO)cc3)O[C@@H]2c2ccccc21 | 2.69 |
| C=CC[C@]1(C(=O)OC)N=C(c2ccc(OCCCO)cc2)O[C@H]1c1ccccc1N=[N+]=[N-] | 2.87 |
| Cc1ccc(F)cc1S(=O)(=O)N[C@@H]1CCN(Cc2ccc3[nH]ccc3c2)C1 | 0.95 |
| CCCC=C(CCC)[C@@H](NC(=O)c1ccco1)c1ccc(C(=O)OC)cc1 | 2.72 |
| CCCCC=C[C@@H](NC(=O)c1ccc(C(F)(F)F)cc1)c1ccccc1 | 0.0379 |
| O=C1N(Cc2ccccc2)c2ccccc2[C@H]2OC(c3ccc(OCCCO)cc3)=N[C@@]12Cc1ccccc1 | 2.42 |

###

# test summary: S. cerevisiae RM11-1a growth modifiers, primary screen, strain RM11-1a, OD600, basal, 24 h (AID 1177);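 further: cultures grown under basal conditions with no added stressor; test concentration not given here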
# protocol conditions: OD600, 24 h, higher = more signal, called active from +8 up or from −8 down
Values of z-score greater than or equal to 0.08 map to Criterion met; values below map to Criterion not met.

| chemical smiles | cat |
| --- | --- |
| [N-]=[N+]=NCc1ccccc1C[C@]1(C(=O)N2CCCCC2)N=C(c2ccc(OCCCO)cc2)O[C@H]1c1ccccc1 | Criterion met |
| COC(=O)C(CC#Cc1ccc2c(c1)[C@]1(C(=O)N2)[C@H](c2ccc(O)cc2)N2[C@H](c3ccccc3)[C@H](c3ccccc3)OC(=O)[C@H]2[C@@H]1C(=O)N1CCc2cc(OC)c(OC)cc2C1)C(=O)OC | Criterion met |
| CCOC(=O)C[C@H]1[C@H](OC(=O)c2cc3ccccc3oc2=O)[C@@H](NC(=O)C2CCCCC2)c2cc(OCCCO)ccc2N1C(=O)Cc1ccc(OC)cc1 | Criterion not met |
| C=CCOC(=O)[C@H]1[C@@H]2C(=O)O[C@@H](c3ccccc3)[C@@H](c3ccccc3)N2[C@@H](c2ccc(OCCOC(=O)[C@@H]3C[C@@H]4C(=O)N[C@@H](CC(C)C)C(=O)N4[C@@H]3c3ccc(O)cc3)cc2)[C@]12C(=O)Nc1ccc(I)cc12 | Criterion not met |
| CCOC(=O)C[C@H]1[C@H](OC(=O)c2ccc(C(=O)c3ccccc3)cc2)[C@@H](NC(=O)c2ccc3ccccc3c2)c2cc(OCCCO)ccc2N1C(=O)c1ccc2ccccc2n1 | Criterion met |

###

# test summary: anti-His antibody binders, primary screen, artefact control for SMM control protein annotation, biochemical, small-molecule microarray, 635 nm fluorescence (AID 1128);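 further: score merges feature fluorescence with signal-to-noise for each printed compound spot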
# protocol conditions: anti-His Alexa647 antibody binding, higher = more signal
The compounds listed here are annotated with their composite z-score.

| compound | composite z-score |
| --- | --- |
| CCCC=C(CCC)[C@@H](NC(=O)c1ccco1)c1ccc(C(=O)OC)cc1 | 1.24 |
| CCCCC(O)C1C=CC2C(=O)NC(=O)C2N1Nc1ccc(Cl)cc1Cl (stereo not given) | 2.42 |
| CC(C)=CCN(C(=O)C#Cc1ccccc1)[C@H](CO)c1ccccc1 | 0.326 |
| COC(=O)C1(CC(C)C)C=C2C(=C(C(C)C)C(=O)C2C)CN1 (stereo not given) | 0.928 |
| CCCCC=C[C@@H](NC(=O)c1ccc(C(F)(F)F)cc1)c1ccccc1 | 0.3 |
| O=C1C2C=CC(C(O)c3cccs3)N(Nc3ccccc3)C2C(=O)N1c1ccccc1 (stereo not given) | -0.0476 |
| CCC(CC)C(O)C1C=CC2C(=O)N(C)C(=O)C2N1N1CCCCC1 (stereo not given) | 2.05 |
| C=CCOC(=O)[C@H]1[C@@H]2C(=O)O[C@@H](c3ccccc3)[C@@H](c3ccccc3)N2[C@@H](c2ccc(OCCOC(=O)[C@@H]3C[C@@H]4C(=O)N[C@@H](Cc5ccccc5)C(=O)N4[C@@H]3c3ccc(O)cc3)cc2)[C@]12C(=O)Nc1ccccc12 | 1.78 |
| NCCCC[C@@H]1NC(=O)[C@H]2C[C@@H](C(=O)NCc3ccc(F)cc3)[C@@H](c3cccc(OCCO)c3)N2C1=O | 2.48 |
| CC(C)C[C@H]1NC(=O)[C@H](Cc2ccccc2)NC(=O)[C@@]23C(=O)N[C@@H](Cc4ccccc4)C2[C@H](C)[C@@]2(C)O[C@H]2C3/C=C/C/C=C\CNC1=O (stereo not given in full) | 0.701 |
| C=CCC(OC(C)=O)[C@@H]1[C@@H](N(Cc2ccc(-c3ccccc3)cc2)C(=O)c2ccc(-c3ccccc3)cc2)c2cc(OCCCO)ccc2N1C(=O)c1ccc2ccccc2n1 (stereo not given in full) | -0.513 |
| COC(=O)[C@@]1(Cc2ccc(F)cc2)[C@H]2c3cc(C(=O)N(C)C)n(CCO)c3C[C@H]2CN1C(=O)c1ccccc1 | 2.78 |
| O=C1O[C@H](c2ccccc2)[C@H](c2ccccc2)N2[C@H]1[C@@H](C(=O)N1CCN(c3ncccn3)CC1)[C@]1(C(=O)Nc3ccccc31)[C@H]2c1ccc(O)cc1 | 2.34 |
| C=CCC(OC(C)=O)[C@@H]1[C@@H](N(Cc2cc3ccccc3o2)C(=O)Cc2ccc(OC)cc2)c2cc(OCCCO)ccc2N1C(=O)Cc1ccc2ccccc2c1 (stereo not given in full) | 0.305 |
| C#CCN([C@H](/C=C/C1CC1)[C@@H](O)Cc1ccccc1)[C@@H](Cc1ccccc1)C(=O)OC | 0.482 |

###

# test summary: S. cerevisiae RM11-1a growth modifiers, primary screen, strain RM11-1a, OD600, basal, 24 h (AID 1177);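 further: cultures grown under basal conditions with no added stressor; test concentration not given here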
# protocol conditions: OD600, 24 h, higher = more signal, called active from +8 up or from −8 down
quantity: z-score

| compound | observed measurement |
| --- | --- |
| O=C1O[C@@H](c2ccccc2)[C@@H](c2ccccc2)N2[C@@H](c3ccc(OCCO)cc3)[C@]3(C(=O)Nc4ccc(C#CCCO)cc43)[C@@H](C(=O)Nc3nc4ccccc4s3)[C@H]12 | 0.25 |
| CC(C)C[C@H]1NC(=O)[C@@H](C)NC(=O)[C@@]23C(=O)N[C@@H](Cc4ccccc4)C2[C@H](C)[C@@]2(C)O[C@H]2C3/C=C/C/C=C\CNC1=O (some centres undefined) | -1.27 |
| COCCOC(=O)N1C(=O)[C@@]2(c3cc(C#CCCO)ccc31)[C@H](c1ccccc1OCCO)N1[C@H](c3ccccc3)[C@H](c3ccccc3)OC(=O)[C@H]1[C@@H]2C(=O)N1CCc2cc(OC)c(OC)cc2C1 | 2 |
| CCCCC(O)C1C=CC2C(=O)NC(=O)C2N1Nc1ccccn1 (centres undefined) | 0.369 |
| COC(=O)c1c(CC[C@@H](CO)NC(=O)N[C@@H](Cc2ccccc2)Cn2cc(-c3cncn3C)nn2)oc(C(C)=O)c1C(=O)OC | -0.688 |
| COC(=O)[C@@]1(Cc2ccccc2CN=[N+]=[N-])COC(c2ccc(OCCCO)cc2)=N1 | 0.593 |
| C=CCC(OC(C)=O)[C@@H]1[C@@H](N(Cc2cc3ccccc3o2)C(=O)Cc2ccc(OC)cc2)c2cc(OCCCO)ccc2N1C(=O)Cc1ccc(OC)cc1 (some centres undefined) | -0.133 |
| CN1C(=O)C2C=CC(C(O)c3ccc(-c4ccccc4)s3)N(Nc3ccccc3)C2C1=O (centres undefined) | 0.0727 |
| CCOC(=O)C1=C(C(=O)OCC)N(S(=O)(=O)CC[Si](C)(C)C)[C@H](c2ccccc2)CC1 | 1.73 |
| CC(C)C[C@@H]1NC(=O)[C@@H]2C[C@H](C(=O)NCCCC[N+](C)(C)C)[C@H](c3ccc(O)cc3)N2C1=O | 0.0138 |
| C=CCC(OC(C)=O)[C@@H]1[C@@H](N(Cc2cc3ccccc3o2)C(=O)Cc2ccc(OC)cc2)c2cc(OCCCO)ccc2N1C(=O)Cc1ccc2ccccc2c1 (some centres undefined) | 0.101 |
| C=CCC(OC(C)=O)[C@@H]1[C@@H](N(Cc2cccc3ccccc23)C(=O)c2cccc3ccccc23)c2cc(OCCCO)ccc2N1C(=O)Cc1ccc2ccccc2c1 (some centres undefined) | -0.0264 |
| O=C1O[C@H](c2ccccc2)[C@H](c2ccccc2)N2[C@H]1[C@@H](C(=O)N1CCN(c3ncccn3)CC1)[C@]1(C(=O)Nc3ccccc31)[C@H]2c1ccc(O)cc1 | 2.29 |
| CN(C)C(=O)[C@]1(Cc2ccccc2)N=C(c2ccc(OCCCO)cc2)O[C@@H]1c1ccccc1 | 0.597 |
